Origin of measurements: patent US20250179057A1

- procedureText: Plasma stability, human plasma (K2EDTA)
- Type: in vitro ADME
- runConditions: human plasma, 2 μM, anti-coagulant K2-EDTA, 120 min
Counter-ions that a name gives are not always drawn.
recordedEndpoint: % Remaining at T120 (%)
Numbers only, in %.

Example cases with answers are listed next.
[
  {
    "compound": "CCN(C)Cc1c(Cc2cccc(NS(=O)(=O)NC)c2F)c(=O)oc2cc(OC(=O)N(C)C)c(F)cc12",
    "resultNumber": 95.7
  },
  {
    "compound": "CNS(=O)(=O)Nc1cccc(Cc2c(CN(C)C)c3ccc(OC(=O)N(C)C)cc3oc2=O)c1Cl",
    "resultNumber": 121.2
  },
  {
    "compound": "CNS(=O)(=O)Nc1cccc(Cc2c(CN(C)C)c3ccc(OC(=O)N(C)C)cc3oc2=O)c1F",
    "resultNumber": 99.8
  },
  {
    "compound": "CCN(C)Cc1c(Cc2cccc(NS(=O)(=O)NC)c2Cl)c(=O)oc2cc(OC(=O)N(C)C)ccc12",
    "resultNumber": 106.8
  },
  {
    "compound": "CNS(=O)(=O)Nc1cccc(Cc2c(CN3CCNCC3)c3ccc(OC(=O)N(C)C)cc3oc2=O)c1Cl [Compound 246, hydrochloride]",
    "resultNumber": 105.7
  },
  {
    "compound": "CNS(=O)(=O)Nc1cccc(Cc2c(CN3CCNCC3)c3cc(F)c(OC(=O)N(C)C)cc3oc2=O)c1F",
    "resultNumber": 107.8
  }
]

Form: compound = CNS(=O)(=O)Nc1nccc(Cc2c(CN(C)C)c3ccc(OC(=O)N(C)C)cc3oc2=O)c1F ; % Remaining at T120 = 85.0

----------
- Test system: phospho-ERK in A549 (KRAS G12S) cells
- procedureText: Cell-based pERK (pERK:tERK) in A549 cells
- runConditions: 10 nM, 2 h; phospho- to total protein ratio normalized to DMSO control (Table 9)
Assignment: determine reported A549-pERK (10 nM, 2 h) for the given compounds.
One number for each entry.

[
  {
    "compound": "CNS(=O)(=O)Nc1cccc(Cc2c(CNc3cncs3)c3ccc(OC(=O)N(C)C)cc3oc2=O)c1F [Compound 91]",
    "A549-pERK (10 nM, 2 h)": 74.6
  },
  {
    "compound": "CNS(=O)(=O)Nc1cccc(Cc2c(CNc3ccc(OC)nc3)c3ccc(OC(=O)N(C)C)cc3oc2=O)c1F [Compound 193]",
    "A549-pERK (10 nM, 2 h)": 90.7
  },
  {
    "compound": "Cc1c(Cc2ccnc(NS(=O)(=O)C(C)C)c2F)c(=O)oc2cc(OC(=O)N(C)C)ccc12 [Compound 114]",
    "A549-pERK (10 nM, 2 h)": 36.6
  }
]

Here is another compound to look at.
Form: compound = CNS(=O)(=O)Nc1cccc(Cc2c(CN(C)c3cccc(Cl)c3)c3ccc(OC(=O)N(C)C)cc3oc2=O)c1F [Compound 95] ; A549-pERK (10 nM, 2 h) = 80.2

----------
- targetOrSystem: CYP1A2 (Homo sapiens, UniProt P05177)
- Sequence (P05177 whole entry): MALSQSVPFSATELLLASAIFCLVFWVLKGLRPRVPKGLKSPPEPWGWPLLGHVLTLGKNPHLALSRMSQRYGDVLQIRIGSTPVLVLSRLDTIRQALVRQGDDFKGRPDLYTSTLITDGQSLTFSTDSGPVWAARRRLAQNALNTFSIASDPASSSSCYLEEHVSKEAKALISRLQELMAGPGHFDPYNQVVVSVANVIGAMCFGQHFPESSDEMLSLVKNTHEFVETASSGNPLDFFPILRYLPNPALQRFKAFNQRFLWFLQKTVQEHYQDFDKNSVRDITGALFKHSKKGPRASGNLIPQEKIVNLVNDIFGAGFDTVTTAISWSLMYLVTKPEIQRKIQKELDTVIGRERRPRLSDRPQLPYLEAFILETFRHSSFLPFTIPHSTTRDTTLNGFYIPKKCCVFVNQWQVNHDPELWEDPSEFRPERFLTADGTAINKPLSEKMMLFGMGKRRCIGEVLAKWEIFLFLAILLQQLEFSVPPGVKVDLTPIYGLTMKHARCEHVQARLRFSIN
- procedureText: CYP450 panel inhibition in human liver microsomes, 1A2 (phenacetin)
- runConditions: human, microsomes, pH 7.4
Structures can show the parent of a compound that is named as a salt.
Assignment: determine reported inhibition at 30 min, 10 µM for the given compounds.
Numbers only, in %.

[
  {
    "compound": "CNS(=O)(=O)Nc1cccc(Cc2c(CN(C)C)c3ccc(OC(=O)N(C)C)cc3oc2=O)c1Cl",
    "resultNumber": -3.4
  },
  {
    "compound": "CCS(=O)(=O)Nc1cccc(Cc2c(CN3CCNCC3)c3cc(Cl)c(OC(=O)N(C)C)cc3oc2=O)c1Cl [Compound 257, hydrochloride]",
    "resultNumber": 9.9
  },
  {
    "compound": "CNS(=O)(=O)Nc1cccc(Cc2c(CN3CCNCC3)c3ccc(OC(=O)N(C)C)cc3oc2=O)c1Cl [Compound 246, hydrochloride]",
    "resultNumber": -3.7
  },
  {
    "compound": "CCN(C)Cc1c(Cc2cccc(NS(=O)(=O)NC)c2Cl)c(=O)oc2cc(OC(=O)N(C)C)ccc12",
    "resultNumber": -0.3
  }
]

Here is another compound to look at.
Form: compound = CNS(=O)(=O)Nc1cccc(Cc2c(CN3CCNCC3)c3cc(Cl)c(OC(=O)N(C)C)cc3oc2=O)c1Cl [Compound 256, hydrochloride] ; inhibition at 30 min, 10 µM = 6.2

----------
- procedureText: Hepatocyte stability, human
- Type: in vitro ADME
- runConditions: human, hepatocytes, 0.5 million cells/ml, read-out: CLint (L/hr/kg) (converted)
Assignment: determine reported log10 CLint scaled at 2 μM for the given molecules.
Recall that a logarithmic scale is used here: each number is log10 of CLint scaled at 2 μM in L/h/kg.

Give measured log10 CLint scaled at 2 μM for every item shown.
1. CNS(=O)(=O)Nc1cccc(Cc2c(CN(C)C)c3ccc(OC(=O)N(C)C)cc3oc2=O)c1Cl
2. CCN(C)Cc1c(Cc2cccc(NS(=O)(=O)NC)c2Cl)c(=O)oc2cc(OC(=O)N(C)C)ccc12

*A*
0.30
0.73

----------
- procedureText: Mouse pharmacokinetics (oral cassette dosing), plasma
- Format: in vivo
- runConditions: female, mouse, BALB/c immunocompetent mice, 5 mg/kg p.o.
Counter-ions that a name gives are not always drawn.
recordedEndpoint: AUC(0-inf) (µg·h/mL)
One number for each entry, in µg·h/mL.

[
  {
    "compound": "CNS(=O)(=O)Nc1cccc(Cc2c(CN3CCNCC3)c3cc(Cl)c(OC(=O)N(C)C)cc3oc2=O)c1Cl [Compound 256, hydrochloride]",
    "AUC(0-inf), µg·h/mL": 0.0283
  },
  {
    "compound": "CNS(=O)(=O)Nc1cccc(Cc2c(CN(C)C)c3ccc(OC(=O)N(C)C)cc3oc2=O)c1Cl [Compound 274]",
    "AUC(0-inf), µg·h/mL": 0.396
  },
  {
    "compound": "CNS(=O)(=O)Nc1cccc(Cc2c(CN(C)C)c3ccc(OC(=O)N(C)C)cc3oc2=O)c1Br [Compound 248]",
    "AUC(0-inf), µg·h/mL": 0.0283
  }
]

Form: compound = CCN(C)Cc1c(Cc2cccc(NS(=O)(=O)NC)c2F)c(=O)oc2cc(OC(=O)N(C)C)c(F)cc12 [Compound 238] ; AUC(0-inf) = 0.434

----------
- Test system: phospho-ERK in A549 (KRAS G12S) cells
- procedureText: Cell-based pERK (pERK:tERK) in A549 cells
- runConditions: 10 nM, 2 h; phospho- to total protein ratio normalized to DMSO control (Table 9)
Label key: T means A549-pERK (10 nM, 2 h) under 60; F means A549-pERK (10 nM, 2 h) of 60 or more.

Examples with answers:
[
  {
    "molecule": "CNS(=O)(=O)Nc1nccc(Cc2c(CN(C)C)c3cc(F)c(OC(=O)N(C)C)cc3oc2=O)c1F [Compound 140]",
    "targetOrSystem": "phospho-ERK in A549 (KRAS G12S) cells",
    "answerLabel": "F"
  },
  {
    "molecule": "CCN1CCN(Cc2c(Cc3cccc(NS(=O)(=O)NC)c3F)c(=O)oc3cc(OC(=O)N(C)C)ccc23)CC1=O [Compound 69]",
    "targetOrSystem": "phospho-ERK in A549 (KRAS G12S) cells",
    "answerLabel": "F"
  },
  {
    "molecule": "Cc1c(Cc2ccnc(NS(=O)(=O)C3CC3)c2F)c(=O)oc2cc(OC(=O)N(C)C)ccc12 [Compound 112]",
    "targetOrSystem": "phospho-ERK in A549 (KRAS G12S) cells",
    "answerLabel": "T"
  }
]

*Q* In plain terms, does CNS(=O)(=O)Nc1cccc(Cc2c(CNCCC(F)(F)F)c3ccc(OC(=O)N(C)C)cc3oc2=O)c1F [Compound 66] come in under 60 for A549-pERK (10 nM, 2 h)?
*A* F

*Q* In plain terms, does CCN(CC)C(=O)Oc1ccc2c(CN(C)C)c(Cc3cccc(NS(=O)(=O)NC)c3F)c(=O)oc2c1 [Compound 126] come in under 60 for A549-pERK (10 nM, 2 h)?
*A* F

*Q* In plain terms, does CNS(=O)(=O)Nc1cccc(Cc2c(CNC(=O)c3c[nH]nn3)c3ccc(OC(=O)N(C)C)cc3oc2=O)c1F [Compound 211] come in under 60 for A549-pERK (10 nM, 2 h)?
*A* F

*Q* In plain terms, does Cc1c(Cc2ccnc(NS(=O)(=O)C3CCC3)c2F)c(=O)oc2cc(OC(=O)N(C)C)ccc12 [Compound 125] come in under 60 for A549-pERK (10 nM, 2 h)?
*A* T
